Where do these numbers come from? They come from the supplement of paper PMC11865577.

- Tested on: TO-3-N3-2 (biotin conjugate)
- ASSAY NOTES: pull-down binding Z-score (relative to library population); higher = stronger binding
- CONDITION SET: RNA library: Library-2
Please mark Fulfilled if the recorded pull-down binding Z-score is equal to or greater than -0.3, and Not fulfilled if it falls below.

Q: Does pull-down binding Z-score meet or surpass -0.3 for "GGUCCAGAACAAACCCAAGGAAAUUUUGGGGACC" ?
A: Fulfilled

Q: Does pull-down binding Z-score meet or surpass -0.3 for CUCGGGUGGAUAAGUCUGAUCUGAG [hsa-mir-3663] ?
A: Not fulfilled

Q: Does pull-down binding Z-score meet or surpass -0.3 for UUGUCUCCUCAAGUUGCGACGAGACAG [hsa-mir-4645] ?
A: Not fulfilled

Q: Does pull-down binding Z-score meet or surpass -0.3 for UAUUGGGCCAAUUCCCCCAAUG [hsa-mir-4781] ?
A: Not fulfilled

Q: Does pull-down binding Z-score meet or surpass -0.3 for GUCGCUACAGGAUUGGCAACUAUAAAUUAAACACAGACCAUUCCAGUAGCAGUGAC [SHAPE_invitro_SARS-CoV-2_Motif_494] ?
A: Fulfilled

Q: Does pull-down binding Z-score meet or surpass -0.3 for GAUGUAUCCAAGUACCCUGUGUUAUUUGGCAAUAAAUACAUC [hsa-mir-1298] ?
A: Not fulfilled

Q: Does pull-down binding Z-score meet or surpass -0.3 for UGCAGUGAGCAACCUACACAACUGCA [hsa-mir-5589] ?
A: Not fulfilled

Q: Does pull-down binding Z-score meet or surpass -0.3 for CUUCUGCUUCCUCUUAGCGCAGGAG [hsa-mir-1914] ?
A: Not fulfilled

Q: Does pull-down binding Z-score meet or surpass -0.3 for UUUUGAAAGUAACUUGGCGAAA [hsa-mir-548ad] ?
A: Fulfilled

Q: Does pull-down binding Z-score meet or surpass -0.3 for "GCCUUGAAGCCCCUUUUCUCUAUCUUUAUGCUUUAGUCUACUUCUUGCAGAGUAUAAACUUUGUAAGAAUAAUAAUGAGGC" ?
A: Fulfilled

Q: Does pull-down binding Z-score meet or surpass -0.3 for CGCGCGUCGAGUCAGCCGUGUG [hsa-mir-933] ?
A: Fulfilled

Q: Does pull-down binding Z-score meet or surpass -0.3 for AGCACUUUCUGUUUUGUGAAAGAAAAGAAAGUGCU [hsa-mir-516b-1] ?
A: Not fulfilled

Q: Does pull-down binding Z-score meet or surpass -0.3 for CUCUUGAUAGCAGACAU [hsa-mir-4775] ?
A: Fulfilled

Q: Does pull-down binding Z-score meet or surpass -0.3 for CUGGAGUCGCCUGAGUCAUCACUCAG [hsa-mir-3065] ?
A: Fulfilled

Q: Does pull-down binding Z-score meet or surpass -0.3 for "AUAUAACUUCUAAAGAAACUUUGUAU" ?
A: Not fulfilled

Q: Does pull-down binding Z-score meet or surpass -0.3 for UUUGCCUGUAAAAGUAAUGGCAAA [hsa-mir-548d-1] ?
A: Fulfilled

Q: Does pull-down binding Z-score meet or surpass -0.3 for AGUGGUGCAAUCUCAGUUCACU [hsa-mir-3135a] ?
A: Fulfilled

Q: Does pull-down binding Z-score meet or surpass -0.3 for UCCAGACGGAGAUGCGA [hsa-mir-611] ?
A: Fulfilled

Q: Does pull-down binding Z-score meet or surpass -0.3 for CACGCCGCGCCGCCGGGUCCCUCCUCCCCGGAGAGGCUG [hsa-mir-4674] ?
A: Fulfilled

Q: Does pull-down binding Z-score meet or surpass -0.3 for UGCUUGAUCCAUAUGCAACAAGGCA [hsa-mir-103b-1] ?
A: Fulfilled

Q: Does pull-down binding Z-score meet or surpass -0.3 for CACACAUACAUAUAUAUAUGUUUG [hsa-mir-3149] ?
A: Fulfilled
